TESTED SYSTEM: CYP2C9 (Homo sapiens)
Sequence (P11712 whole entry): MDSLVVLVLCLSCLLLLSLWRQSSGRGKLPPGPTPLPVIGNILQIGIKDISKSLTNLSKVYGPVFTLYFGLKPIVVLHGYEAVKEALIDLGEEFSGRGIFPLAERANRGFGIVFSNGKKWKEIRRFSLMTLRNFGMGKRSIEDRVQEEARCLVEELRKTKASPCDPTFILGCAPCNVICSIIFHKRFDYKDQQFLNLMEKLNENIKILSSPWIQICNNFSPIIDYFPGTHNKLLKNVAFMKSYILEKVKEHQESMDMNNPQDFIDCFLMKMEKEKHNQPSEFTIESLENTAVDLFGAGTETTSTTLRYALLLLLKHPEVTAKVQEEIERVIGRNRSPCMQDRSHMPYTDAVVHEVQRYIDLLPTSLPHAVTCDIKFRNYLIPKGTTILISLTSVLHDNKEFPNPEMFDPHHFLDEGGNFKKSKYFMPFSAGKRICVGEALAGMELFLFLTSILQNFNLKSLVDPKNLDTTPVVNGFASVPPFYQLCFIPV
EXPERIMENT DESCRIPTION: CYP inhibition, CYP2C9
Type: in vitro ADME
SETUP CONDITIONS: human liver microsomes
pIC50: −log10 of the molar value.
READOUT KIND: pIC50

>>> print(df.to_string())
                                   molecule  recorded_value
0  Cc1c(C(=O)Nc2ccc3c(c2)B(O)OC3)nnn1-c1ccccn1 [Compound 23]          < 4.30

* * *

EXPERIMENT DESCRIPTION: In vivo pharmacokinetics in dog
Parameters: species or system male Beagle dogs
SETUP CONDITIONS: male, Beagle, plasma, IV 1.0 mg/kg, mean
READOUT KIND: C0 (ng/mL)

>>> print(df.to_string())
                                smiles_data  recorded_value
0  Cc1c(C(=O)Nc2ccc3c(c2)B(O)OC3)nnn1-c1ccccn1            1930
